# System: OVCAR-8 ovarian
# experimental details: NCI tumour cell line growth inhibition, 48 h
Record form. Attribute: TGI. Fill in for each entry.

Give its TGI value. Item: Clc1ccc(C2=NN=C3C(c4ccccc4)=Nc4ccccc4N3C2)cc1 > 100 µM

Quick one: O=C1c2cc(Cl)ccc2NC(=NC2CCCC2)C2CSCN12 (stereo not given) > 100 µM

Quick one: CC[C@@]1(O)C(=O)OCc2c1cc1n(c2=O)Cc2c-1nc1ccccc1c2/C=N\NC(=O)C1CCCN1 (stereo not given in full) 10.9 µM

Quick one: [C](#Cc1ccccc1)[Hg][C]#Cc1ccccc1 60.9 µM

Quick one: O=c1cc(CO)oc2c3c(cc(O)c12)OCC(COC1OC(CO)C(O)C(O)C1O)=CC3 (stereo not given) > 100 µM

Quick one: COc1ccc(NC(=O)CC2SC(=Nc3ccccc3C)NC2=O)c([N+](=O)[O-])c1 (stereo not given) > 100 µM

Quick one: CSc1ccc(-c2cc(-c3nc4ccccc4[nH]3)no2)cc1 > 100 µM

Quick one: Cc1ccccc1NC(=O)c1cc(-c2ccc([N+](=O)[O-])cc2)nc(=S)[nH]1 > 100 µM

Quick one: Cc1nc(C)c(N2CCN(S(=O)(=O)N(Cc3ccccc3)Cc3ccccc3)CC2)c(=O)[nH]1 54.1 µM

Quick one: COc1ccc(NC(=O)CSC2=C(Nc3cccc(Br)c3)C(=O)N(Cc3ccccc3)C2=O)cc1Cl > 100 µM
